- systemTested: NHE3 (Homo sapiens)
- Construct: expressed in transfected cells
- Sequence (P48764 26-834): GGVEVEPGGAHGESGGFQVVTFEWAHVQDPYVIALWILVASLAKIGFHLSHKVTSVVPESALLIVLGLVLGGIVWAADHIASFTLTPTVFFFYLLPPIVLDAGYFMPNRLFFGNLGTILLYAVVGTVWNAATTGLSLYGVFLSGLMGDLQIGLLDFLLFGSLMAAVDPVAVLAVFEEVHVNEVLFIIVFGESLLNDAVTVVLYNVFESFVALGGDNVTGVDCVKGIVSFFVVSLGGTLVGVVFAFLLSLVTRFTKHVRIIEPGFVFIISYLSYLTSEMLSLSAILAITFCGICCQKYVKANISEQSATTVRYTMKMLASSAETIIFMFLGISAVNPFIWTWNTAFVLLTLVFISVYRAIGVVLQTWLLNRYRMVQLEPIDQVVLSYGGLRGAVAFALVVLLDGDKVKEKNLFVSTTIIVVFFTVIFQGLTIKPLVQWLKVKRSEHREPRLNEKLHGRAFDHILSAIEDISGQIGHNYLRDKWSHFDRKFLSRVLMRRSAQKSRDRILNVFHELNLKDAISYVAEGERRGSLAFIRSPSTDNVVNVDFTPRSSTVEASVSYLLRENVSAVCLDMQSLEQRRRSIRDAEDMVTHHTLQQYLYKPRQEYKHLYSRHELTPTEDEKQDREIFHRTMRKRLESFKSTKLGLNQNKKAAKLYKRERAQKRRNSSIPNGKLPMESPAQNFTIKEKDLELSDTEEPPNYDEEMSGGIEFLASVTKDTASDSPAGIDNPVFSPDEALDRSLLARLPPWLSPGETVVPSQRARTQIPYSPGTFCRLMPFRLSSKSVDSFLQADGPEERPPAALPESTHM
- Sequence (Q99653 2-195 partner limits assumed): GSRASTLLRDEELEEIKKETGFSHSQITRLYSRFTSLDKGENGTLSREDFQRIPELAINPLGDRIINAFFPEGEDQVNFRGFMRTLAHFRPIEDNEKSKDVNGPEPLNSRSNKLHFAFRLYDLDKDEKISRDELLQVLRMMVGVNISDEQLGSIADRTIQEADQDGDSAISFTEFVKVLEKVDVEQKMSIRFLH
- methodDescription: Cell-based assay of NHE-3 activity (pre-incubation inhibition), human
- conditionLabel: human Preincubation
Counter-ions that a name gives are not always drawn.
reportedProperty: % inhibition

molecule=CN(C)[C@H]1Cc2c(Cl)cc(Cl)cc2[C@@H]1Oc1ccc(S(=O)(=O)N[C@@H]2CCN(CCOCCNC(=O)NCCCCNC(=O)NCCOCCN3CC[C@@H](NS(=O)(=O)c4ccc(O[C@H]5c6cc(Cl)cc(Cl)c6C[C@@H]5N(C)C)c(F)c4)C3)C2)cc1F observed="C (>70%)"
molecule="CC(C)(COCCOCCNC(=O)NCCCCNC(=O)NCCOCCOCC(C)(C)NS(=O)(=O)c1ccc(O[C@H]2c3cc(Cl)cc(Cl)c3C[C@@H]2N2CCC[C@@H](N)C2)cc1)NS(=O)(=O)c1ccc(O[C@H]2c3cc(Cl)cc(Cl)c3C[C@@H]2N2CCC[C@@H](N)C2)cc1 [Example 100, hydrochloride]" observed="C (>70%)"
molecule=CN(C)[C@@H]1CCCN([C@H]2Cc3c(Cl)cc(Cl)cc3[C@@H]2Oc2ccc(S(=O)(=O)NCCOCCOCCNC(=O)NCCCCNC(=O)NCCOCCOCCNS(=O)(=O)c3ccc(O[C@H]4c5cc(Cl)cc(Cl)c5C[C@@H]4N4CCC[C@@H](N(C)C)C4)c(F)c3)cc2F)C1 observed="C (>70%)"
